Read-out: Thrombomodulin, THBD (gene 7056)
Assay Details: BSK_CASM3C_Thrombomodulin: BioMAP Diversity Plus: CASM3C Assay for Thrombomodulin Biomarker Activity (AID 2283051);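 note: thrombomodulin protein level measured by ELISA 24 h after dosing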
Settings: primary human coronary artery smooth muscle cells; actives raise or lower the signal
Calls of active or inactive are those of the source. Rule for the calls: active = hit-call score of the fitted dose curve at least 0.9, where 1 is the maximum; inactive = score below 0.9.
Write down one outcome, taken from YES (active), NO (inactive)

Dear all, I need the recorded test outcome for CCC(O)=C1C(=O)CC(C(=O)O)CC1=O (stereo unspecified) , thank you. NO

Hi, sorry to bother you, what did the test record for CCN(Cc1c(F)cccc1Cl)c1c([N+](=O)[O-])cc(C(F)(F)F)cc1[N+](=O)[O-] ? NO

For CCNc1nc(N)nc(Cl)n1 , what call appears in the results of this test? NO

Name the outcome recorded for CCCN(CCC)c1c([N+](=O)[O-])cc(C(F)(F)F)c(N)c1[N+](=O)[O-] in the assay. YES

Give the logged outcome of this assay for the following compound: CCOC(=O)C(C)Oc1ccc(Oc2nc3ccc(Cl)cc3o2)cc1 (stereo unspecified) NO

Name the outcome recorded for O=C(O)C1(C(=O)Nc2ccc(Cl)cc2Cl)CC1 in the assay. NO

----------
Read-out: Urokinase-type plasminogen activator receptor (uPAR), PLAUR (gene 5329)
Assay Details: BSK_4H_uPAR: BioMAP Diversity Plus: 4H Assay for Urokinase-type plasminogen activator receptor (uPAR) Biomarker Activity (AID 2283030)
Settings: primary human endothelial cells (HUVEC); actives raise or lower the signal
The source made the active and inactive calls. Rule for the calls: active = hit-call score of the fitted dose curve at least 0.9, where 1 is the maximum; inactive = score below 0.9.
Classes to choose from: active, inactive

Consider the following illustrative entries.
> print(dat)
                                   compound  label.class
1                    CC(C)CCCCCCc1ccc(O)cc1       active
2                                     COCCO     inactive
3  CCOC(=O)[C@H](C)Oc1ccc(Oc2nc3ccc(Cl)cc3o2)cc1     inactive
4               CN(C)C(=O)Nc1ccc(Cl)c(Cl)c1     inactive
5           CCOC(=O)NCCOc1ccc(Oc2ccccc2)cc1     inactive
6  CC(C)(C)[C@@H](O)[C@@H](Cc1ccc(Cl)cc1)n1cncn1     inactive
7  CCOC(=O)C(C)Oc1ccc(Oc2cnc3cc(Cl)ccc3n2)cc1 (configuration not stated)     inactive
8  CCCCC(CC)COC(=O)c1ccccc1C(=O)O (configuration not stated)     inactive

Which outcome was assigned to O=C(c1ccc(O)cc1O)c1ccc(O)cc1O in this test? inactive

Recorded test call requested for CC(=O)[C@H]1CC[C@H]2[C@@H]3CCC4=CC(=O)CC[C@]4(C)[C@H]3CC[C@]12C active

Which outcome was assigned to CCCCOC(=O)C(C)Oc1ccc(Oc2ccc(C(F)(F)F)cn2)cc1 (configuration not stated) in this test? inactive

Field: outcome | Entry: c1ccc(Nc2ccccc2)cc1 inactive

----------
Assay Details: APR_HepG2_MicrotubuleCSK_24hr: Apredica 24-hour HepG2 Assay for Microtubule CSK Stabilty (AID 2282909)
Settings: HepG2 microtubule cytoskeleton imaging, actives raise or lower the signal
Activity calls are given as the source filed them. Rule for the calls: active = hit-call score of the fitted dose curve at least 0.9, where 1 is the maximum; inactive = score below 0.9.
Select the matching outcome among 1 (active), 0 (inactive)

Solved cases (6 shown):
> print(dat)
                                   molecule  label.class
1  COc1nc(C)nc(NC(=O)NS(=O)(=O)c2ccccc2OCCCl)n1            0
2  C[C@]12C[C@H](O)[C@H]3[C@@H](CCC4=CC(=O)CC[C@@]43C)[C@@H]1CC[C@@H]2C(=O)CO            0
3  CCOC(=O)C(C)Oc1ccc(Oc2cnc3cc(Cl)ccc3n2)cc1 (configuration not stated)            0
4         O=C(O)C1(C(=O)Nc2ccc(Cl)cc2Cl)CC1            0
5  CCOC(=O)[C@H](C)Oc1ccc(Oc2nc3ccc(Cl)cc3o2)cc1            0
6  N[C@@H](Cc1cc(I)c(Oc2ccc(O)c(I)c2)c(I)c1)C(=O)O            0

I would be grateful if you could indicate the recorded call for S=C(S)NCCNC(=S)S.[Mn+2].[S-]C([S-])=NCCN=C([S-])[S-].[Zn+2] . 0

// outcome(item) with item = CCC(O)=C1C(=O)CC(C(=O)O)CC1=O (configuration not stated) 0
